For each of the compounds below, state its Ki.
System: prostaglandin EP4 receptor (Homo sapiens (Human), UniProt P35408)
Sequence (P35408 whole entry): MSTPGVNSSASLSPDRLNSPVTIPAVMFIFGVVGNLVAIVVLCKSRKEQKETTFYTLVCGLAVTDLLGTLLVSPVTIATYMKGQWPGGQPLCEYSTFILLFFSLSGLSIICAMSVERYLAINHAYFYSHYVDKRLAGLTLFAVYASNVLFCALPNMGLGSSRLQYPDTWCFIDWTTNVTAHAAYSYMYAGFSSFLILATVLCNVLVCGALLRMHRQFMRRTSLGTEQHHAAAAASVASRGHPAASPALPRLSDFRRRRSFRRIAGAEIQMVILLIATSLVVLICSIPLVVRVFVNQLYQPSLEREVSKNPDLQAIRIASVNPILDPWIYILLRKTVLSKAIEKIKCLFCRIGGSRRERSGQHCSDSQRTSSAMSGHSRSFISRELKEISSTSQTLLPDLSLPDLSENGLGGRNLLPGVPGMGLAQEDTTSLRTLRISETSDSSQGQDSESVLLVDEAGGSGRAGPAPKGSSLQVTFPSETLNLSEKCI
Numbers only, in nM.

Please review the following examples before continuing.
{"Compound": "O=C(O)c1ccc(CC[C@H]2C(=O)CC[C@@H]2/C=C/C(O)Cc2ccc(F)cc2)cc1 (single isomer, unassigned)", "Readout Units": "nM", "Ki": 3}
{"Compound": "COc1ccc2cc(CC(O)/C=C/[C@H]3CCC(=O)[C@@H]3CCc3ccc(C(=O)O)cc3)ccc2c1 (stereo partly shown)", "Readout Units": "nM", "Ki": 2660}
{"Compound": "O=C(O)c1ccc(CC[C@H]2C(=O)CC[C@@H]2/C=C/C(O)Cc2cc(F)ccc2F)cc1 (single isomer, unassigned) [Entry 27]", "Readout Units": "nM", "Ki": 457}
{"Compound": "O=C(O)c1ccc(CC[C@H]2C(=O)CC[C@@H]2/C=C/C(O)Cc2ccc3ccsc3c2)cc1 (stereo partly shown)", "Readout Units": "nM", "Ki": 41}
{"Compound": "COc1cc2ccccc2cc1CC(O)/C=C/[C@H]1CCC(=O)[C@@H]1CCc1ccc(C(=O)O)cc1 (stereo partly shown)", "Readout Units": "nM", "Ki": 4620}
{"Compound": "O=C(O)c1ccc(CC[C@H]2C(=O)CC[C@@H]2/C=C/C(O)Cc2cc(F)ccc2F)cc1 (single isomer, unassigned) [Entry 28]", "Readout Units": "nM", "Ki": 5}
{"Compound": "O=C(O)c1ccc(CC[C@H]2C(=O)CC[C@@H]2/C=C/C(O)Cc2cccc(F)c2F)cc1 (single isomer, unassigned)", "Readout Units": "nM", "Ki": 585}
{"Compound": "O=C(O)c1ccc(CC[C@H]2C(=O)CC[C@@H]2/C=C/C(O)Cc2cccc(F)c2)cc1 (single isomer, unassigned)", "Readout Units": "nM", "Ki": 40}

Your task in this section: give Ki for each listed record.
1. O=C(O)c1ccc(CC[C@H]2C(=O)CC[C@@H]2/C=C/C(O)Cc2sc3ccccc3c2Cl)cc1 (single isomer, unassigned)
2. O=C(O)c1ccc(CC[C@H]2C(=O)CC[C@@H]2/C=C/C(O)Cc2ccccc2F)cc1 (single isomer, unassigned)

Found:
[603, 4]

Hey, just so you know, these numbers are from patent US9394273B2.
